In this section, each of the compounds is paired with its reported TGI.
# System: UACC-257 melanoma
# testDescription: NCI tumour cell line growth inhibition, 48 h

A selection of reference data follows.
UACC-257 melanoma assay, compound Nc1nc(SCCC/C=C/B(O)O)nc2c1ncn2C1OC(CO)C(O)C1O (centres undefined) , recorded TGI = > 243 µM

UACC-257 melanoma assay, compound `O=C1c2ccccc2C(=O)N1C/C=N/NS(=O)(=O)c1ccc(Cl)cc1` , recorded TGI = > 100 µM

UACC-257 melanoma assay, compound COc1cc(C(C)c2cc3c(cc2OCCOCCOc2cc4c(cc2C(C)c2cc(OC)c(OC)c(OC)c2)OCO4)OCO3)cc(OC)c1OC (centres undefined) , recorded TGI = > 10 µM

Continue with the next compound.
UACC-257 melanoma assay, compound CCC1(c2ccncc2)CCC(=O)NC1=O (centres undefined) , recorded TGI = > 100 µM

###

In this section, each of the compounds is paired with its reported TGI.
# Tested on: SF-539 CNS
# testDescription: NCI tumour cell line growth inhibition, 48 h

According to the records, this compound `O=C(CN1CCOCC1)NC1=Nc2ncccc2C(=O)NN1` displays TGI of > 10 µM

According to the records, this compound `COC(=O)[C@@H]1C[C@H]2[C@H](c3ccccc3Br)[C@@H](OC(C)=O)[C@@H](OCc3ccccc3)ON2O1` displays TGI of > 100 µM

According to the records, this compound O=C1c2ccccc2N2OC3C4CCC(C4)C3C12c1ccccc1 (configuration not stated) displays TGI of > 100 µM

According to the records, this compound Nc1nc(SCCC/C=C/B(O)O)nc2c1ncn2C1OC(CO)C(O)C1O (configuration not stated) displays TGI of > 243 µM

According to the records, this compound `O=c1c2cc(-c3ccccc3)sc2nc2sc(-c3ccccc3)nn12` displays TGI of > 100 µM

According to the records, this compound `O=C1c2ccccc2C(=O)N1C/C=N/NS(=O)(=O)c1ccc(Cl)cc1` displays TGI of > 100 µM

According to the records, this compound `CC(C)(C)c1cc2c(OP(c3ccccc3)c3ccccc3)c(c1)Cc1cc(C(C)(C)C)cc(c1OP(c1ccccc1)c1ccccc1)Cc1cc(C(C)(C)C)cc(c1OP(c1ccccc1)c1ccccc1)Cc1cc(C(C)(C)C)cc(c1OP(c1ccccc1)c1ccccc1)C2` displays TGI of > 50 µM

According to the records, this compound `O=C(O/N=C1/CCC/C1=C\c1ccccc1)c1ccc(Cl)cc1` displays TGI of > 62.2 µM

Others:
According to the records, this compound N#CC1(C#N)C(c2ccccc2)NC23CCCCC2C1(C#N)C(=O)N3 (configuration not stated) displays TGI of > 100 µM

According to the records, this compound COc1cc(C(CN)N(C)C)cc(OC)c1OC (configuration not stated) displays TGI of > 100 µM

According to the records, this compound `Cc1ccc2nc(NC(=O)CSC(=S)N3CCN(Cc4ccccc4)CC3)sc2c1` displays TGI of > 100 µM

According to the records, this compound `CC(C)c1cccc2sc(NC(=O)C(=O)CC(=O)c3ccc(F)cc3)nc12` displays TGI of > 100 µM

###

# System: OVCAR-5 ovarian
# testDescription: NCI tumour cell line growth inhibition, 48 h
In this section, each of the compounds is paired with its reported TGI.

A selection of reference data follows.
According to the records, this compound `O=C(/C=C/c1ccc(O)c(O)c1)Oc1ccccc1` displays TGI of > 96.3 µM

According to the records, this compound `COc1ccc(C(=O)N=C2N(c3ccccc3)C(=Nc3ccccc3)C(=Nc3ccccc3)N2c2ccccc2)cc1` displays TGI of > 100 µM

According to the records, this compound `COc1cccc(C(=O)O)c1Cc1cccc2ccccc12` displays TGI of > 100 µM

According to the records, this compound `CCN(CC)CCNc1ccc(CO)c2sc3ccccc3c(=O)c12` displays TGI of 25.1 µM [middle of 4 runs]

According to the records, this compound CCCCCCCCCCCCCCCCCCNc1ccn(C2OC(COP(=O)(O)OCCCCCCCCCCCCCCCC)C(O)C2O)c(=O)n1 (stereo not drawn) displays TGI of > 100 µM

According to the records, this compound `COC(=O)c1cc(Cl)ccc1NC(=O)C1CCCCC1` displays TGI of > 100 µM

According to the records, this compound COC(=O)C1=C(O)C(C(=O)OC)[C@@]2(O)[C@@H](C(=O)OC)C(c3ccc(OC(=O)/C(=C/c4ccccc4)c4ccccc4)cc3)C[C@@H]1[C@@H]2C(=O)OC (stereo partly drawn) displays TGI of > 100 µM

According to the records, this compound `c1ccc(CN2CCC3(CC2)ONC2=NCCN23)cc1` displays TGI of > 100 µM

According to the records, this compound CCC1(c2ccncc2)CCC(=O)NC1=O (stereo not drawn) displays TGI of > 100 µM

According to the records, this compound `O=C(C1=CCC2(CC1)OCCO2)N(Cc1ccccc1)c1ccccc1I` displays TGI of 36.7 µM

Others:
According to the records, this compound `O=S(=O)(O)c1cc(O)c2c(O)c(N=Nc3ccc(/C=C/c4ccc(N=Nc5c(S(=O)(=O)O)cc6cc(S(=O)(=O)O)cc(O)c6c5O)cc4S(=O)(=O)O)c(S(=O)(=O)O)c3)c(S(=O)(=O)O)cc2c1` displays TGI of > 100 µM

According to the records, this compound `O=c1cc(-c2ccccc2)oc2cc(OCc3cn(Cc4ccc(F)cc4)nn3)cc(O)c12` displays TGI of > 100 µM

According to the records, this compound COc1cc(C(CN)N(C)C)cc(OC)c1OC (stereo not drawn) displays TGI of > 100 µM
